Source listed as patent US9682940B2.

molecular target: Human CB2R (Cannabanoid receptor 2) (Homo sapiens (Human), UniProt P34972); experiment: CB-2 in vitro cAMP (HTRF) assay in HEK-293 cells; settings: HEK-293 cells stably transfected with human CB2R, 250 nM Forskolin, mean where tested more than once, read-out: CB-2 (HEK_cAMP) EC50
Sequence (P34972 whole entry): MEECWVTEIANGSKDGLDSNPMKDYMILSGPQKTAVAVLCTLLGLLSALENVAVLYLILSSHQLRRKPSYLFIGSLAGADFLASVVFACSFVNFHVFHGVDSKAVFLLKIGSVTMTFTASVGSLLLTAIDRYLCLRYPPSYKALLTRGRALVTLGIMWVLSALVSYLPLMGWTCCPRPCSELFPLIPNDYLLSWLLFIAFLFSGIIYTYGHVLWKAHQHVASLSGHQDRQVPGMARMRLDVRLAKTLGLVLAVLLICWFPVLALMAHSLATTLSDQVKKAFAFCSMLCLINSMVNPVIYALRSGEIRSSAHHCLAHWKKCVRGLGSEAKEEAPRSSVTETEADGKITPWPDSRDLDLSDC
Parameter EC50: see the listing below.

Qu. Please report the measured EC50 for NC(=O)c1ccc(CN2CCC(c3n[nH]c4ccc(C(c5ccc(Cl)cc5)c5ccc(Cl)cc5)cc34)CC2)cc1
Ans. > 10 µM

* * *

molecular target: UniProtKB P21554; assay: CB-1 in vitro cAMP (HTRF) assay in HEK-293 cells; assay type: cell-based; conditions: HEK-293 cells stably transfected with human CB1R, 250 nM Forskolin, mean where tested more than once, read-out: CB-1 (HEK_cAMP) EC50
Sequence (P21554 whole entry): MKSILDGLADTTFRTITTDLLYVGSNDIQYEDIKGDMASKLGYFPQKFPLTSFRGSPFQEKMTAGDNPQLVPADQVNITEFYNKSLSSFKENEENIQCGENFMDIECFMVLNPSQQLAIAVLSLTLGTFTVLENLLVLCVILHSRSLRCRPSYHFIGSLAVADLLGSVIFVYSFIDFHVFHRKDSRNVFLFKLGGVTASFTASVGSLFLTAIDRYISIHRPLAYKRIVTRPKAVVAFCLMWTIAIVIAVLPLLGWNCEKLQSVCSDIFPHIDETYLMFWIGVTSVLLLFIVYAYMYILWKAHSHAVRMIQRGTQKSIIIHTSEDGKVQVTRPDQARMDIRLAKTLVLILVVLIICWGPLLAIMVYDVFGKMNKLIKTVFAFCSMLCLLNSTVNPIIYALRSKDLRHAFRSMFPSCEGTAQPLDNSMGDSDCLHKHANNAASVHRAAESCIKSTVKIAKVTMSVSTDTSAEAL
MEASUREMENT_LABEL: pEC50
Just so you know, pEC50 here is -log10 of the concentration in molar units; reply with that number alone.

O=C(O)CC(=O)N1CCC(c2nn(C3CC3)c3ccc(C(c4ccc(Cl)cc4)c4ccc(Cl)cc4)cc23)CC1	6.32

Qu. Supply recorded pEC50 for NC(=O)c1csc(CS(=O)(=O)N2CCC(c3nn(C4CC4)c4ccc(C(c5ccc(Cl)cc5)c5ccc(Cl)cc5)cc34)CC2)c1 here.
Ans. 7.66

Qu. Answer with reported pEC50 of O=C(OCc1ccccc1)N1CCC(c2n[nH]c3ccc(C(c4ccc(Cl)cc4)c4ccc(Cl)cc4)cc23)CC1
Ans. 6.68

Qu. Given the compound NC(=O)Cc1cccc(N2CCC(c3nn(C4CC4)c4ccc(C(c5ccc(Cl)cc5)c5ccc(Cl)cc5)cc34)CC2)c1 , write its reported pEC50.
Ans. 5.96

Qu. Given O=C(O)COc1ccc(N2CCC(c3nn(C4CC4)c4ccc(C(c5ccc(Cl)cc5)c5ccc(Cl)cc5)cc34)CC2)cc1 , respond with its pEC50.
Ans. 5.15

Qu. Provide pEC50 value for the following compound: NC(=O)c1ccccc1S(=O)(=O)N1CCC(c2n[nH]c3ccc(C(c4ccc(Cl)cc4)c4ccc(Cl)cc4)cc23)CC1
Ans. 6.53

Qu. Return the recorded pEC50 value; entry: Cn1nc(C2CCN(S(=O)(=O)c3ccc(C(=O)O)cc3)CC2)c2cc(C(c3ccc(Cl)cc3)c3ccc(Cl)cc3)ccc21
Ans. 6.07

Qu. Please report pEC50 for the following compound: O=C(CO)N1CCC(c2c3cc(C(c4ccc(Cl)cc4)c4ccc(Cl)cc4)ccc3nn2C2CC2)CC1
Ans. 6.87

Qu. Report measured pEC50; entry is NC(=O)c1ccc(N2CCC(c3nn(C4CC4)c4ccc(C(c5ccc(Cl)cc5)c5ccc(Cl)cc5)cc34)CC2)cc1
Ans. 7.64

Qu. Find the measured pEC50 of O=C(O)CCC(=O)N1CCC(c2nn(C3CC3)c3ccc(C(c4ccc(Cl)cc4)c4ccc(Cl)cc4)cc23)CC1 and report it.
Ans. 6.04

Qu. For O=C(O)c1ccc(S(=O)(=O)N2CCC(c3c4cc(C(c5ccc(Cl)cc5)c5ccc(Cl)cc5)ccc4nn3C3CC3)CC2)o1 , write its pEC50.
Ans. 8.52
